Source listed as patent US20190338038A1.

Biological target: T1, IL1-RAP (antigen of the kinetic measurements of Tables 5A and 5B) (human, UniProt Q9NPH3 21-359, limits assumed)
T1 sequence: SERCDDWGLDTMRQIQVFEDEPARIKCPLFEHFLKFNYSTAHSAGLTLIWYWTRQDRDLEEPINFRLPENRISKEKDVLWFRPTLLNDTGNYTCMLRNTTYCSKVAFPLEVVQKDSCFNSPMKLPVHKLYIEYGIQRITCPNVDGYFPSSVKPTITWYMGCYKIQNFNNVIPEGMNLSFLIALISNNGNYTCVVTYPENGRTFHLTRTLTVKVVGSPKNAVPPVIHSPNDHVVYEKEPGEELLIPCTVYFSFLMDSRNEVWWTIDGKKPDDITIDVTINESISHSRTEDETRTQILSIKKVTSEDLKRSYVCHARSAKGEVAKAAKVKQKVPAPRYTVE
Experiment: kinetics, Table 5A; method and antigen form not stated
quantity_measured: koff

humanized clone of 54.9D7 hH3L3 (antibody, V domains shown, Humanized; also called 54.9D7 H3L3) VH: QVQLVQSGAEVKKPGASVKLSCKASGYIFITYWMNWVRQAPGQGLEWVGQIFPASGTTYYAQKFQGRATLTVDTSTSTAYMELSSLRSEDTAVYYCARTDFYRYDGGYALDYWGQGTLLTVSS VL: DIQLTQSPSSLSASVGDRATITCRASQSVSTSGYSSMHWYQQKPGKAPKLLIKYASDLESGVPSRFSGSGSGTDFTLTISSVQPEDFATYYCHHSWGIPMYTFGQGTKLEIKR :: < 1e-07 s⁻¹
